- TARGET UNDER TEST: human PAD4 (hPAD4) (Homo sapiens (Human), UniProt Q9UM07)
- Sequence (Q9UM07 whole entry): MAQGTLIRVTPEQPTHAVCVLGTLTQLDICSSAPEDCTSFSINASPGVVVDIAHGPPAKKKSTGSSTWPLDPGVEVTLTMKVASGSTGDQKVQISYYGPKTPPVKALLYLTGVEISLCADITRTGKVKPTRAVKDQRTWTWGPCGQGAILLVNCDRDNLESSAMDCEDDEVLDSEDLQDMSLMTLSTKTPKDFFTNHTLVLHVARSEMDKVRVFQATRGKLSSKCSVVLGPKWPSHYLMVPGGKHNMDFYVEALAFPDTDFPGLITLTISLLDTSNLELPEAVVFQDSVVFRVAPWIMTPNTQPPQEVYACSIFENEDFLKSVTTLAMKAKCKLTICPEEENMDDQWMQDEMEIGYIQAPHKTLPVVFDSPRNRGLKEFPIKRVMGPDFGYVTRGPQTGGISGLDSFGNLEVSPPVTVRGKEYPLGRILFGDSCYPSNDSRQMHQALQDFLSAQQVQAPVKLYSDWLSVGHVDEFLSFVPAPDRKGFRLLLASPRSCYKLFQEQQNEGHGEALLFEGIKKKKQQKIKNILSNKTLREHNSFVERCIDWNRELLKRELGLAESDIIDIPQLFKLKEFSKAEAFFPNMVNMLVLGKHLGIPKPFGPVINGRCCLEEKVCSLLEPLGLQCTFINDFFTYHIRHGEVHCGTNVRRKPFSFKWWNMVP
- TEST DESCRIPTION: RFMS Human PAD4 Functional Assay 1
- MEASUREMENT PARAMETERS: RFMS assay 1; 5 nM hPAD4, 250 μM BAEE substrate, 50 μM calcium, 37° C.
METRIC: pIC50
Please note pIC50 is a logarithmic value: minus log10 of concentration in mol/L. Answer with that number alone.

COC1CCN(c2ccc3cc(-c4nn5cc(C(=O)N6C[C@H](N)C[C@@H](F)C6)ccc5c4C)n(CC4CC4)c3n2)CC1; 5.64

Recorded pIC50 of Cc1c(-c2cc3ccc(-c4ccc5c(c4)CNC5=O)cc3n2CC2CC2)nn2cc(C(=O)N3CC4CCC3[C@@H]4N)ccc12 (stereo partly shown) , please.
7.92

Field request: pIC50 | item: Cc1c(-c2cc3ccc(-c4ccc5[nH]ccc5c4)cc3n2CC2CC2)nn2cc(C(=O)N3CCC[C@@H](N)C3)ccc12
6.10

Item under review: Cc1c(-c2cc3ccc(-c4ccc5[nH]ncc5c4)nc3n2CC2CC2)nn2cc(C(=O)N3C[C@H](N)C[C@@H](F)C3)cc(Cl)c12 . Reported pIC50?
5.57

What does the record list as pIC50 for Cc1c(-c2cc3cccc(C4CCN(C(=O)CC(C)C)CC4)c3n2CC2CC2)nn2cc(C(=O)N3C[C@H](N)C[C@@H](F)C3)ccc12 ?
6.80

Item Cc1c(-c2cc3ccc(-c4ccc(C(N)=O)c(Cl)c4)cc3n2CC2CC2)oc2cc(C(=O)N3C[C@H](N)C[C@@H](F)C3)ccc12 has what recorded pIC50?
5.47

Query: pIC50; subject: COc1cc(C(=O)N2CCC[C@@H](N)C2)cn2nc(-c3cc4ccc(-c5cccc6[nH]ncc56)cc4n3CC3CC3)c(C)c12
6.38

What does the record list as pIC50 for Cc1c(-c2cc3ccc(N4CCC(S(C)(=O)=O)CC4)nc3n2CC2CC2)nn2cc(C(=O)N3CCC[C@@H](N)C3)cc(F)c12 ?
5.68

Requested field: pIC50. Item: COc1cc(C(=O)N2CC3CCC2[C@@H]3N)cn2nc(-c3cc4ccc(C)nc4n3CC3CC3)c(C)c12 (stereo partly shown)
7.17

Which measured pIC50 value corresponds to Cc1cc(-c2ccc3cc(-c4nn5cc(C(=O)N6CC7CCC6[C@@H]7N)ccc5c4C)n(CC4CC4)c3c2)c(F)cc1C(N)=O (stereo partly shown) ?
7.22

GET /values?readout=pIC50&item= COc1cc(C(=O)N2CC3CCC2[C@@H]3N)cn2nc(-c3cc4ccccc4n3CC3CC3)c(C)c12 (stereo partly shown)
5.67

Need pIC50 of COc1cc(C(=O)N2CCC[C@@H](N)C2)cn2nc(-c3cc4ccc(-c5ccc(C(=O)N(C)C)cc5)cc4n3CC3CC3)c(C)c12 , thanks.
6.49

Could you tell me which pIC50 is on file for COCC(=O)N1CCC(c2cccc3cc(-c4nn5cc(C(=O)N6CC7CCC6[C@@H]7N)ccc5c4C)n(CC4CC4)c23)CC1 (stereo partly shown) ?
8.00

---

- TARGET UNDER TEST: human PAD4 (hPAD4) (Homo sapiens (Human), UniProt Q9UM07)
- TEST DESCRIPTION: RFMS Human PAD4 Functional Assay 1
- MEASUREMENT PARAMETERS: RFMS assay 1; 5 nM hPAD4, 250 μM BAEE substrate, 50 μM calcium, 37° C.
The following ranges of IC50 define the classes used here: b0 = under 100 nM, b1 = from 100 nM up to 400 nM, b2 = 400 nM and over

Cc1c(-c2cc3ccc(-c4ccc(O)c(F)c4)cc3n2CC2CC2)nn2cc(C(=O)N3C[C@H](N)C[C@@H](F)C3)ccc12; b2
Cc1c(-c2cc3ccc(C(C)O)nc3n2CC2CC2)nn2cc(C(=O)N3CCC[C@@H](N)C3)ccc12 (mixture of isomers); b1
Cc1c(-c2cc3ccc(-c4ccc(O)c(F)c4)cc3n2CC2CC2)oc2cc(C(=O)N3CC4CCC3[C@@H]4N)ccc12 (stereo partly shown); b2
COc1cc(C(=O)N2C[C@H](N)C[C@@H](F)C2)cn2nc(-c3cc4ccc(-c5cccc(O)c5F)cc4n3CC3CC3)c(C)c12; b2
Cc1cc(-c2ccc3cc(-c4nn5cc(C(=O)N6C[C@H](N)C[C@@H](F)C6)ccc5c4C)n(CC4CC4)c3c2)ccc1C(N)=O; b2
Cc1c(-c2cc3ccc(C(C)(C)O)cc3n2CC2CC2)oc2cc(C(=O)N3CC4CCC3[C@@H]4N)ccc12 (stereo partly shown); b0
CC(=O)NCc1cccc(-c2ccc3cc(-c4nn5cc(C(=O)N6CCC[C@@H](N)C6)ccc5c4C)n(CC4CC4)c3c2)c1; b0
Cc1c(-c2cc3ccc(-c4ccc(C(N)=O)c(F)c4)nc3n2CC2CC2)nn2cc(C(=O)N3CC4CCC3[C@@H]4N)ccc12 (stereo partly shown); b0
Cc1c(-c2cc3ccc(C(C)(C)O)nc3n2CC2CC2)nn2cc(C(=O)N3CC4CCC3[C@@H]4N)ccc12 (stereo partly shown); b0
Cc1c(-c2cc3ccc(-c4ccc(N5CCNC5=O)cc4)nc3n2CC2CC2)nn2cc(C(=O)N3CC4CCC3[C@@H]4N)cc(F)c12 (stereo partly shown); b2

Kindly state the category for this compound: CO[C@@H](C)C(=O)N1CCC(c2cccc3cc(-c4nn5cc(C(=O)N6C[C@H](N)C[C@@H](F)C6)cc(F)c5c4C)n(CC4CC4)c23)CC1
b1

Classify this compound: Cc1c(-c2cc3cccc(OCC4CNC(=O)C4)c3n2CC2CC2)nn2cc(C(=O)N3C[C@H](N)C[C@@H](F)C3)ccc12 (single isomer, unassigned) [Example 573]
b1

Which category fits this record: COc1cc(C(=O)N2CCC[C@@H](N)C2)cn2nc(-c3cc4cc(F)cc(C5CCN(C(C)=O)CC5)c4n3CC3CC3)c(C)c12
b1
